melting point reference
Write it as a number; the unit °C goes unstated.

compound: CC(C)c1ccc(COc2cc(F)c(-c3c(-c4ccncc4)nn4c3NCC4)cc2F)cc1 [Co. 2]
reported-property: melting point
reported-value: 153

compound: CC(C)c1ccc(COc2ccc(-c3c(-c4ccncc4)nn4c3NC(CO)CC4)cc2)cc1 (stereo not shown) [Co. 24]
reported-property: melting point
reported-value: 199

compound: CC(C)c1ccc(COc2ccc(-c3c(-c4ccncc4)nn4c3NCC4)c(C#N)c2)cc1 [Co. 3]
reported-property: melting point
reported-value: 191

compound: CC(C)c1ccc(COc2ccc(-c3c(-c4ccncc4)nn4c3NCC4)cc2)cc1C#N [Co. 6]
reported-property: melting point
reported-value: 158

Req: Consider the compound shown here: CC(C)c1ccc(COc2ccc(-c3c(-c4ccncc4)nn4ccc(=O)[nH]c34)cc2)cc1 [Co. E] What is its recorded melting point?
Resp: 243

Req: Consider the compound shown here: CC(C)c1ccc(COc2ccc(-c3c(-c4ccncc4)nn4c3N(C)CCC4)cc2)cc1 [Co. 19] What is its recorded melting point?
Resp: 120

Req: Consider the compound shown here: CC(C)c1ccc(COc2ccc(-c3c(-c4ccncc4)nn4c3NCC4)c(F)c2)cc1 [Co. 5] What is its recorded melting point?
Resp: 141
